Values were extracted from PubChem BioAssay.

# Assay explanation: CREB reporter modulators under forskolin, primary screen, cell-based, PC12, CRE-LacZ reporter, forskolin-stimulated (AID 1146);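 further: PC12 cells with 6xCRE LacZ reporter stimulated by forskolin 10 µM; beta-galactosidase reporter signal reflecting CREB driven transcription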
# Details: luminescence, 4.5 h, higher = more signal, called active from +8 up or from −8 down
Property name: z-score
Answers are plain numbers.

Compound: CC(C)NC(=O)[C@@H]1c2ccccc2C(=O)N(Cc2cc(F)cc(C(F)(F)F)c2)[C@H]1c1ccc(CO)cc1
Measurement: -1.08
//
Compound: COc1ccc(CCNC(=O)[C@@]2(Sc3ccc(C)cc3)CC(=O)N(Cc3ccccc3)[C@@H]2c2ccc(CO)cc2I)cc1
Measurement: 1.72
//
Compound: CC(C)C[C@@H]1NC(=O)[C@H]2C[C@@H](C(=O)NCCCC[N+](C)(C)C)[C@@H](c3cccc(OCCO)c3)N2C1=O
Measurement: -1.21
//
Compound: CC(C)N1C(=O)c2ccccc2[C@@H](C(=O)NCc2ccccc2)[C@@H]1c1ccc(CO)cc1
Measurement: -0.659
//
Compound: COCCOC(=O)N1C(=O)[C@@]2(c3cc(C#CC4(O)CCCCCC4)ccc31)[C@H](c1ccccc1OCCO)N1[C@H](c3ccccc3)[C@H](c3ccccc3)OC(=O)[C@H]1[C@@H]2C(=O)Nc1nc2ccccc2s1
Measurement: -1.05

# batch size: 7; output z-score per entry
1. CO[C@H]1O[C@H](CO)[C@@H](OC(=O)Nc2ccccc2)[C@H](OC(=O)Nc2ccccc2-c2ccccc2)[C@@H]1OC(=O)Nc1ccccc1-c1ccccc1
2. COC(=O)c1c2oc(c1C(=O)OC)C(=O)N[C@@H](C(C)C)Cn1nncc1C1(CCCCC1)NC(=O)N[C@H](CO)CC2
3. O=C1O[C@H](c2ccccc2)[C@H](c2ccccc2)N2[C@H]1[C@@H](C(=O)Nc1nc3ccccc3s1)[C@]1(C(=O)Nc3ccc(C#CCCO)cc31)[C@H]2c1ccccc1OCCO
4. COC(=O)C1=CC(CCCO)=CC(C2CC2)N(Cc2cc3c(cc2Br)OCO3)C=C1C(=O)OC (stereo not given)
5. CCN(CC)c1ccc(N2CC=CC34O[C@@H]5C=CCOC(=O)[C@@H]5[C@H]3C(=O)N(C(C)CO)[C@@H]4C2=O)cc1 (stereo not given in full)
6. CC(CO)N1C(=O)[C@@H]2C3C(=O)OCCC/C=C\[C@H]3OC23C=CCN(Cc2ccccc2)C(=O)[C@@H]13 (stereo not given in full)
7. CN1C=C(C(=O)OCCS(C)(=O)=O)C(C(=O)OCCS(C)(=O)=O)=CC(CCCO)=CC1c1cccs1 (stereo not given)

1: -0.446; 2: -0.575; 3: -0.428; 4: -0.562; 5: 0.188; 6: -0.954; 7: -1.56

# batch size: 3; output z-score per entry
1. CC(C)C(CO)N1C(=O)[C@@H]2C3C(=O)OCCC/C=C\[C@H]3OC23C=CCN(C(C)C)C(=O)[C@@H]13 (stereo not given in full)
2. O=C(NO)[C@]1(Cc2ccccc2)N=C(c2ccc(OCCCO)cc2)O[C@@H]1c1ccccc1
3. Cc1ccc(N2C(=O)c3ccccc3[C@](C)(C(=O)NCC(F)(F)F)[C@@H]2c2ccc(CO)cc2)nc1

1. -1.18
2. -1.91
3. -1.31
